# System: Programmed cell death 1 ligand 1 (Homo sapiens, UniProt Q9NZQ7)
# Sequence (Q9NZQ7 whole entry): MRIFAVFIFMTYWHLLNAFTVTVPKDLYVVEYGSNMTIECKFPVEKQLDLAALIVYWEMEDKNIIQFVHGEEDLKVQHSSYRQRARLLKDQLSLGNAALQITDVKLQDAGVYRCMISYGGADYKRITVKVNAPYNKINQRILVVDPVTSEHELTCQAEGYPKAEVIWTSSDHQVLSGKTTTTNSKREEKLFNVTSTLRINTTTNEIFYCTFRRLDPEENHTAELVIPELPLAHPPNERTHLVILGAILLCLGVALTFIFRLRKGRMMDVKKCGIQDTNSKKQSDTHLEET
# Assay remarks: Binding affinity to human recombinant PD-L1 by surface plasmon resonance assay
Metric name: Kd (µM)
Answers are plain numbers, in µM.

Entry H-GNWDYNSQRAQLYNQ-OH , system Programmed cell death 1 ligand 1 (Homo sapiens, UniProt Q9NZQ7): what Kd was measured? 1.38

* * *

# System: Programmed cell death protein 1/Programmed cell death 1 ligand 1 (Homo sapiens, UniProt Q15116+Q9NZQ7)
# Sequence (Q15116 whole entry): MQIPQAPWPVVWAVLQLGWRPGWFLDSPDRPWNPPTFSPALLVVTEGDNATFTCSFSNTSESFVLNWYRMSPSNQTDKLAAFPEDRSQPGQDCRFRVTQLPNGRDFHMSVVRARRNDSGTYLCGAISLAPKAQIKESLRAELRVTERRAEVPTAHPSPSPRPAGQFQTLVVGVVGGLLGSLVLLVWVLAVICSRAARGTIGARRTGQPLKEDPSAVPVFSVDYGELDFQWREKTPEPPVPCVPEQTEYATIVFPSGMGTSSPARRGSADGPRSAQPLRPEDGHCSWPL
# Sequence (Q9NZQ7 whole entry): as the sequence (Q9NZQ7 whole entry) above
# Assay remarks: Inhibition of PD-1/PD-L1 interaction (unknown origin) incubated for 15 mins by HTRF assay
# Format: protein-complex assay
Assign IC50 to each entry below.

[
  {
    "Smiles input": "C[C@H](O)[C@@H]1NC(=O)NCc2nc(no2)[C@H](CO)NC(=O)COCCOCCNC1=O",
    "IC50": "< 10 nM"
  }
]

Continue with the next molecule.
Bench note: what IC50 did CNC(=O)C[C@@H]1NC(=O)O[C@@H]([C@H](C)O)C(=O)NCCOCCOCC(=O)N[C@@H](CCO)c2noc1n2 show? < 10 nM
